The measured values listed here are drawn from ChEMBL document CHEMBL3046723.

Attribute: LD50
assay-procedure: Acute toxicity in po dosed Rattus norvegicus Wistar (rat)
Assay type: organism-based
details: in vivo
Enter your answer as a number in mg/kg; do not include the unit.

In the examples that follow, each entry is paired with its recorded LD50.
Challenge: Which LD50 reading was recorded for the compound "C[N+](C)(C)CCl.Cc1cc(Cl)ccc1OCC(=O)[O-]" ?
Response given: 300

Challenge: Record: CCCCC(CC)OC(=O)COc1ccc(Cl)cc1C (stereo not given)
Response given: 1300

Challenge: Record: "Cc1cc(Cl)ccc1OCC(=O)O"
Response given: 962

Challenge: Record: "CCCCCCCCCC[N+](C)(C)CCCCCCCCCC.Cc1cc(Cl)ccc1OCC(=O)[O-]"
Response given: 300

# ---- query compound ----
Challenge: Which LD50 reading was recorded for the compound C[N+](C)(C)CCCl.[Cl-] [CHLORMEQUAT CHLORIDE] ?
Response given: 1300
